# test_details: Ratio of drug uptake in brain to plasma of Sprague-Dawley rat at 10 mg/kg, po at 1 hr
# Format: ADME, organism-based
# Set-up: dose 10 mg/kg, route oral
# setup_conditions: read-out: BPR
property: Kp at 1 h
Give the figure only, with no unit attached.

## Task Specify Kp at 1 h for `O=C(N[C@H]1CCC[C@]2(CN=C(c3cccc(Cl)c3)O2)C1)c1ccccn1` and stop.
## Result 0.6

====

# Test system: Liver microsomes
# test_details: Intrinsic clearance in rat liver microsomes
# Format: ADME, Microsome
property: Intrinsic clearance (mL/min)
Kindly provide the numeric value in mL/min only, without the unit symbol.

compound_string: O=C(N[C@@H]1CCC[C@@H](NC(=O)c2ccccn2)C1)c1cccc(Cl)c1
Intrinsic clearance / mL/min: 41
//
compound_string: Cc1cccc(C(=O)N[C@H]2CCC[C@]3(CN=C(c4cccc(Cl)c4)O3)C2)n1
Intrinsic clearance / mL/min: 48
//
compound_string: O=C(N[C@@H]1CCC[C@@H](NC(=O)c2cccc(Cl)c2)C1)c1cccc(F)c1
Intrinsic clearance / mL/min: 9.4
//
compound_string: N#Cc1cccc(C(=O)N[C@@H]2CCC[C@@H](NC(=O)c3ccccn3)C2)c1
Intrinsic clearance / mL/min: 8.3

Continue with the next compound.
## Task Specify Intrinsic clearance for `O=C(N[C@H]1CCC[C@]2(CN=C(c3cccc(Cl)c3)O2)C1)c1ccccn1` and stop.
## Result 160

====

# test_details: Plasma clearance in Sprague-Dawley rat at 1 mg/kg, iv or 2 mg/kg, po
# Type: ADME, organism-based
property: clearance (mL/min/kg)
Kindly provide the numeric value in mL/min/kg only, without the unit symbol.

## Task Specify clearance for `O=C(N[C@@H]1CCC[C@@H](NC(=O)c2ccccn2)C1)c1cccc(Cl)c1` and stop.
## Result 68.3

====

# test_details: Plasma concentration in CD-1 mouse at 10 mg/kg, sc at 1 hr
# Format: ADME, organism-based
# Parameters: dose 10 mg/kg, route subcutaneous
property: concentration at 1 h

Answered examples (2):
compound_string: O=C(N[C@@H]1CCC[C@@H](NC(=O)c2ccccn2)C1)c1cccc(Cl)c1
concentration at 1 h: 500 nM
--
compound_string: Cc1cccc(C(=O)N[C@H]2CCC[C@]3(CN=C(c4cccc(Cl)c4)O3)C2)n1
concentration at 1 h: 1180 nM

Continue with the next molecule.
## Task Specify concentration at 1 h for `O=C(N[C@H]1CCC[C@]2(CN=C(c3cccc(Cl)c3)O2)C1)c1ccccn1` and stop.
## Result 1160 nM

====

Entries and their Kp at 1 h values follow.
# test_details: Ratio of drug uptake in brain to plasma of CD-1 mouse at 10 mg/kg, sc at 1 hr
# Type: ADME, organism-based
# Design: dose 10 mg/kg, route subcutaneous
# setup_conditions: read-out: BPR

Answered examples (2):
compound_string: O=C(N[C@@H]1CCC[C@@H](NC(=O)c2ccccn2)C1)c1cccc(Cl)c1
Kp at 1 h: 0.34
//
compound_string: O=C(N[C@H]1CCC[C@]2(CN=C(c3cccc(Cl)c3)O2)C1)c1ccccn1
Kp at 1 h: 1

## Task Specify Kp at 1 h for `Cc1cccc(C(=O)N[C@H]2CCC[C@]3(CN=C(c4cccc(Cl)c4)O3)C2)n1` and stop.
## Result 0.8

====

# system_tested: Metabotropic glutamate receptor 5 (Homo sapiens, UniProt P41594)
# Sequence (P41594 whole entry): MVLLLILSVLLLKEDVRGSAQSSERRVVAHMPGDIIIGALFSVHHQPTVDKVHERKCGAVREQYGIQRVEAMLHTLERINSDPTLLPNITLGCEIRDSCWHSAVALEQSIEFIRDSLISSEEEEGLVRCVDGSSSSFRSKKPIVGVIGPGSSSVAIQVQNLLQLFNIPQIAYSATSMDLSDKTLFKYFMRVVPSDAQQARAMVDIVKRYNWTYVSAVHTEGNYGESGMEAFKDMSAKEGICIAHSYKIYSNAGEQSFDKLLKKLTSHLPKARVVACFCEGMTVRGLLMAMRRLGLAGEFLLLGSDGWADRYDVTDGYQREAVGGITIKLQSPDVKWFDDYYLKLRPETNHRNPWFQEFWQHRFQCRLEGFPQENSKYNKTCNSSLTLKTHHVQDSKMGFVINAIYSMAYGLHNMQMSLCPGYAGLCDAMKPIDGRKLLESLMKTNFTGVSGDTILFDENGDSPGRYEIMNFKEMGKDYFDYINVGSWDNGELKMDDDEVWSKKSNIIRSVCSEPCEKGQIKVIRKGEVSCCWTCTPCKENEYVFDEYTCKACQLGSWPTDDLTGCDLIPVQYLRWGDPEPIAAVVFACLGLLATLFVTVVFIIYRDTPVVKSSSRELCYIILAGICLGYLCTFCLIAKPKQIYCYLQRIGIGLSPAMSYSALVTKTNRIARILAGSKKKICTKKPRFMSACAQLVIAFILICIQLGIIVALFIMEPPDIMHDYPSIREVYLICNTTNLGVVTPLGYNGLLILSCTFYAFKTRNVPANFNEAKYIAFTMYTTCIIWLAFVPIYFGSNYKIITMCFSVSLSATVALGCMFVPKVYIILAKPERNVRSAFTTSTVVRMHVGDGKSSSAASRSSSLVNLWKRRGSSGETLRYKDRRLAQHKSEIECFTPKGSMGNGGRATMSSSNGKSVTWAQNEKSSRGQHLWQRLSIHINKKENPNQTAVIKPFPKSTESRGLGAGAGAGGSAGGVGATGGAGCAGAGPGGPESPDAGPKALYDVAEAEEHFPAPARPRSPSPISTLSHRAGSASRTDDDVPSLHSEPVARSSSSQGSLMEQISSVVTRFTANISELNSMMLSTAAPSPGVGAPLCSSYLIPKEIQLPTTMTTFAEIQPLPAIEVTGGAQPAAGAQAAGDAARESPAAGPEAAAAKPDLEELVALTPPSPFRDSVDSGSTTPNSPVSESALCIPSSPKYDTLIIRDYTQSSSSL
# test_details: Antagonist activity at human mGluR5 expressed in HEK293 cells assessed as inhibition of Ca2+ mobilization by FLIPR assay
property: IC50 (nM)
Kindly provide the numeric value in nM only, without the unit symbol.

Answered examples (5):
compound: O=C(N[C@@H]1CCC[C@@H](C(=O)Nc2ccccn2)C1)c1cccc(Cl)c1
units_symbol: nM
IC50: 5000
--
compound: COc1ccc(C(=O)N[C@H]2CCC[C@H](NC(=O)c3cccc(Cl)c3)C2)cc1 (relative stereo)
units_symbol: nM
IC50: 266
--
compound: N#Cc1cccc(C(=O)N[C@@H]2CCC[C@@H](NC(=O)c3ccccn3)C2)c1
units_symbol: nM
IC50: 231
--
compound: O=C(NC1CCCC(NC(=O)c2cccc(Cl)c2)C1)c1cccc(Cl)c1 (mixture of isomers)
units_symbol: nM
IC50: 139
--
compound: O=C(N[C@H]1CCC[C@H](NC(=O)c2cccc(Cl)c2)C1)c1ccc(F)cc1 (relative stereo)
units_symbol: nM
IC50: 194

## Task Specify IC50 for Cc1cccc(C(=O)N[C@H]2CCC[C@H](NC(=O)c3ccccn3)C2)c1 (relative stereo) and stop.
## Result 1000

## Task Specify IC50 for N#Cc1cccnc1C(=O)NC1CCCC(NC(=O)c2cccc(Cl)c2)C1 (mixture of isomers) and stop.
## Result 671

## Task Specify IC50 for `O=C(N[C@@H]1CCC[C@@H](NC(=O)c2ccccn2)C1)c1cccc(Cl)c1` and stop.
## Result 62

## Task Specify IC50 for O=C(NC1CCCC(NC(=O)c2cccc(Cl)c2)C1)c1cccc(F)c1 (racemic) and stop.
## Result 86

## Task Specify IC50 for O=C(NC1CCCC2(CN=C(c3cccc(Cl)c3)O2)C1)c1ccccn1 (mixture of isomers) and stop.
## Result 647

## Task Specify IC50 for O=C(N[C@H]1CCC[C@H](NC(=O)c2cnccn2)C1)c1cccc(Cl)c1 (relative stereo) and stop.
## Result 1370

## Task Specify IC50 for O=C(N[C@@H]1CCC[C@H](NC(=O)c2ccccn2)C1)c1cccc(Cl)c1 (relative stereo) and stop.
## Result 1510

## Task Specify IC50 for Cc1cccc(C(=O)N[C@H]2CCC[C@H](NC(=O)c3cccc(Cl)c3)C2)n1 (racemic) and stop.
## Result 290

## Task Specify IC50 for `Cc1cccc(C(=O)N[C@H]2CCC[C@]3(CN=C(c4cccc(Cl)c4)O3)C2)n1` and stop.
## Result 23

## Task Specify IC50 for `O=C(N[C@H]1CCC[C@]2(CN=C(c3cccc(Cl)c3)O2)C1)c1ccccn1` and stop.
## Result 115
